Reference source for all entries: patent US20100099561A1

Tested on: large crabgrass (Digitaria sanguinalis)
Protocol Description: Test A preemergence, large crabgrass
Assay type: in vivo
Condition: 125 g ai/ha, 0 to 100 scale (0 no effect, 100 complete control)
Property Name: Plant response rating, Crabgrass, Large
Answers are plain numbers.

Would you please look over these solved cases?
CC1(C)CC(S(=O)(=O)Cc2c(C(F)(F)C(F)(F)F)nc3n(c2=O)CCCC3)=NO1 [Compound 21] ... 90
CC1(C)CC(S(=O)(=O)Cc2c(C(F)(F)F)nc3n(c2=O)CCCCC3)=NO1 [Compound 33] ... 90
CC1(C)CC([S+]([O-])Cc2c(C(F)(F)Cl)nc3n(c2=O)CCC3)=NO1 (stereo not shown) [Compound 17] ... 40

Please examine the following record next.
**Q:** I'd like to know its Plant response rating, Crabgrass, Large. The molecule in question is Cn1c(=O)c(CS(=O)(=O)C2=NOC(C)(C)C2)c(C(F)(F)F)c2ccccc21 [Compound 1]
**A:** 0

----------
Test system: wheat (Triticum aestivum)
Protocol Description: Test B preemergence, wheat
Type: in vivo
Condition: Preemergence, 125 g ai/ha; scale 0 to 100
Property Name: Plant response rating, Wheat
Numbers only.

Would you please look over these solved cases?
CC1(C)CC(S(=O)(=O)Cc2c(C(F)(F)C(F)(F)F)nc3n(c2=O)CCC3)=NO1 ... 10
CC1(C)CC(S(=O)(=O)Cc2c(C(F)(F)F)nc3n(c2=O)CCS3)=NO1 ... 0
CC1(C)CC(S(=O)(=O)Cc2c(C(F)(F)F)nc3n(c2=O)CCCC3)=NO1 ... 40
CC1(C)CC(S(=O)(=O)Cc2c(C(F)(F)F)nc3ccsn3c2=O)=NO1 ... 0
CC1(C)CC(S(=O)(=O)Cc2c(C(F)(F)F)nc3n(c2=O)CCC3)=NO1 ... 50

Please examine the following record next.
**Q:** I'd like to know its Plant response rating, Wheat. The compound in question is "CC1(C)CC(S(=O)(=O)Cc2c(C(F)(F)C(F)(F)F)nc3n(c2=O)CCCC3)=NO1"
**A:** 0

----------
System: ducksalad (Heteranthera limosa)
Protocol Description: Test B flooded paddy test, ducksalad
Assay type: in vivo
Condition: Flood, 250 g ai/ha; scale 0 to 100
Task for the reader: assign each of the following molecules its reported Plant response rating, Ducksalad.
One number for each entry.

CCn1c(=O)c(C[S+]([O-])C2=NOC(C)(C)C2)nc2ccccc21 (centres unmarked) ... 20
CC1(C)CC([S+]([O-])Cc2c(C(F)(F)C(F)(F)F)nc3n(c2=O)CCCS3)=NO1 (centres unmarked) ... 0
Cn1c(=O)c(C[S+]([O-])C2=NOC(C)(C)C2)nc2ccccc21 (centres unmarked) ... 30
CC1(C)CC([S+]([O-])Cc2c(C(F)(F)F)nc3cccnn3c2=O)=NO1 (centres unmarked) ... 0

Batch: Plant response rating, Ducksalad for all items listed.
1. CC1(C)CC([S+]([O-])Cc2c(C(F)(F)Cl)nc3n(c2=O)CCC3)=NO1 (centres unmarked)
2. CC1(C)CC([S+]([O-])Cc2c(C(F)(F)C(F)(F)F)nc3n(c2=O)CCCC3)=NO1 (centres unmarked)
3. Cn1c(=O)c(CS(=O)(=O)C2=NOC(C)(C)C2)nc2ccccc21
4. CC1(C)CC([S+]([O-])Cc2c(C(F)(F)F)nc3n(c2=O)CCCCC3)=NO1 (centres unmarked)

**A:**
1. 0
2. 0
3. 0
4. 0
